assay: Selectivity index, ratio of IC50 for CHO cells to IC50 for chloroquine-sensitive Plasmodium falciparum NF54; type: toxicity; details: hamster, read-out: Ratio IC50

{"entrySmiles": "CC(=O)O[C@H]1C[C@@]2(C)[C@@H](C[C@@H](O)[C@H]3[C@@]4(C)CC[C@@H](O)[C@@H](C)[C@@H]4CC[C@@]32C)/C1=C(\\CCC=C(C)C)C(=O)Nc1ccccc1", "selectivity ratio": 74}
{"entrySmiles": "CC(=O)O[C@H]1C[C@@]2(C)[C@@H](C[C@@H](O)[C@H]3[C@@]4(C)CC[C@@H](O)[C@@H](C)[C@@H]4CC[C@@]32C)/C1=C(\\CCC=C(C)C)C(=O)Oc1ccccc1", "selectivity ratio": 41}
{"entrySmiles": "CC(=O)O[C@H]1C[C@@]2(C)[C@@H](C[C@@H](O)[C@H]3[C@@]4(C)CC[C@@H](O)[C@@H](C)[C@@H]4CC[C@@]32C)/C1=C(\\CCC=C(C)C)C(=O)Oc1ccc(Cl)c(Cl)c1", "selectivity ratio": 26}
{"entrySmiles": "CC(=O)O[C@H]1C[C@@]2(C)[C@@H](C[C@@H](O)[C@H]3[C@@]4(C)CC[C@@H](O)[C@@H](C)[C@@H]4CC[C@@]32C)/C1=C(\\CCC=C(C)C)C(=O)Oc1cc(F)cc(F)c1", "selectivity ratio": 21}
{"entrySmiles": "CCCCOC(=O)/C(CCC=C(C)C)=C1\\[C@@H](OC(C)=O)C[C@@]2(C)[C@H]1C[C@@H](O)[C@H]1[C@@]3(C)CC[C@@H](O)[C@@H](C)[C@@H]3CC[C@@]12C", "selectivity ratio": 13}
{"entrySmiles": "CC(=O)O[C@H]1C[C@@]2(C)[C@@H](C[C@@H](O)[C@H]3[C@@]4(C)CC[C@@H](O)[C@@H](C)[C@@H]4CC[C@@]32C)/C1=C(\\CCC=C(C)C)C(=O)Oc1cc(C)ccc1C", "selectivity ratio": 34}
{"entrySmiles": "CCCCCCCCCCCCNC(=O)/C(CCC=C(C)C)=C1\\[C@@H](OC(C)=O)C[C@@]2(C)[C@H]1C[C@@H](O)[C@H]1[C@@]3(C)CC[C@@H](O)[C@@H](C)[C@@H]3CC[C@@]12C", "selectivity ratio": "> 122"}
{"entrySmiles": "CC(=O)O[C@H]1C[C@@]2(C)[C@@H](C[C@@H](O)[C@H]3[C@@]4(C)CC[C@@H](O)[C@@H](C)[C@@H]4CC[C@@]32C)/C1=C(\\CCC=C(C)C)C(=O)O", "selectivity ratio": "> 3"}
{"entrySmiles": "CCCCCCCCOC(=O)/C(CCC=C(C)C)=C1\\[C@@H](OC(C)=O)C[C@@]2(C)[C@H]1C[C@@H](O)[C@H]1[C@@]3(C)CC[C@@H](O)[C@@H](C)[C@@H]3CC[C@@]12C", "selectivity ratio": 20}
{"entrySmiles": "CC(=O)O[C@H]1C[C@@]2(C)[C@@H](C[C@@H](O)[C@H]3[C@@]4(C)CC[C@@H](O)[C@@H](C)[C@@H]4CC[C@@]32C)/C1=C(\\CCC=C(C)C)C(=O)Oc1cc(Cl)cc(Cl)c1", "selectivity ratio": 41}
